- Protocol Description: physchem
- Measurement Setup: pH 6.2, aqueous buffer, thermodynamic from solid
Property Label: solubility (µg/mL)
Could you give me the number in µg/mL? Just the number is fine.

Query :: Item under review: COc1cc(N2CCC(N3CCN(C)CC3)CC2)ccc1Nc1ncc(Cl)c(Nc2ccccc2P(C)(C)=O)n1 [Form A, brigatinib] . Reported solubility?
Result :: 8000

###

- Protocol Description: Quantitative solubility testing, set of 24 solvents (HPLC)
- Format: physicochemical
- Measurement Setup: acetonitrile, 20 °C, organic solvent or mixture, thermodynamic from solid
Property Label: solubility at 24 h

Query :: What does the data say about its solubility at 24 h? Entry: `COc1cc(N2CCC(N3CCN(C)CC3)CC2)ccc1Nc1ncc(Cl)c(Nc2ccccc2P(C)(C)=O)n1`
Result :: 360 µg/mL

Entry source: patent US11427605B2
